Molecular target: 3-oxo-5-alpha-steroid 4-dehydrogenase 2 (Homo sapiens, UniProt P31213)
Sequence (P31213 whole entry): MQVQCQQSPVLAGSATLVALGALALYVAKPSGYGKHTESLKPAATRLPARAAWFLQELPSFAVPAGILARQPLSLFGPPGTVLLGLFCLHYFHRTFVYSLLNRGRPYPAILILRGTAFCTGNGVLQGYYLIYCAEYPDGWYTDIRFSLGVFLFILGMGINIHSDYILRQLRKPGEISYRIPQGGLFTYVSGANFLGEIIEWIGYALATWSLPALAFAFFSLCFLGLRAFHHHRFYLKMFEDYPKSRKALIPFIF
assay-readout: IC50 (nM)
Answers are plain numbers, in nM.

Ask: GET /values?readout=IC50&item= CC(C)(C)NC(=O)[C@H]1CC[C@H]2[C@@H]3CC[C@H]4NC(=O)C=C[C@]4(C)[C@H]3CC[C@]12C [FINASTERIDE]
Reply: 35
